The measurements presented in this section are drawn from the supplement of paper PMC13380429.

inhibition of SARS-CoV-2 cytopathic effect: recorded values
# Test system: Vero E6 infected with SARS-CoV-2
# Test Summary: inhibition of SARS-CoV-2 cytopathic effect; higher = more antiviral protection, active = above 15
# Assay Conditions: 10000 nM; 48 h
Observation Type: inhibition of SARS-CoV-2 cytopathic effect

1. Cc1c[nH]c(=O)n(CCCN2CCN(c3ccccc3OCC(F)(F)F)CC2)c1=O
-1.99% (inactive)
2. CN1C(C(=O)Nc2ccccn2)=C(O)c2sc(Cl)cc2S1(=O)=O [lornoxicam]
-0.69% (inactive)
3. Oc1nc(O)c2nc(O)[nH]c2n1 [uric-acid]
-0.42% (inactive)
4. CCC[C@H](N[C@H]1CCc2cc(F)cc(F)c2C1)C(=O)Nc1cn(C(C)(C)CNCC(C)(C)C)cn1
-10.1% (inactive)
5. Cn1cnnc1Sc1c([N+](=O)[O-])ncn1C
2.84% (inactive)
6. CN1[C@@H]2CC[C@H]1C[C@@H](OC(c1ccc(F)cc1)c1ccc(F)cc1)C2 [3-alpha-bis-(4-fluorophenyl)-methoxytropane]
-5.09% (inactive)
7. CN[C@@H]1[C@H](O)[C@H](NC)[C@H]2O[C@@]3(O)C(=O)C[C@@H](C)O[C@H]3O[C@@H]2[C@H]1O [spectinomycin]
3.59% (inactive)
8. COc1cccc(OC)c1C(=O)N[C@@H]1C(=O)N2[C@@H]1SC(C)(C)[C@@H]2C(=O)O [methicillin]
1.21% (inactive)
9. Nc1ccc(F)cc1NC(=O)c1ccc(CNC(=O)/C=C/c2cccnc2)cc1 [chidamide]
-0.06% (inactive)
10. Nc1c(CC(=O)O)cccc1C(=O)c1ccccc1 [amfenac]
-2.19% (inactive)
11. Cn1c([N+](=O)[O-])cnc1COC(N)=O [ronidazole]
2.12% (inactive)
12. CC(C)C1=C2[C@H]3CC[C@@H]4[C@@]5(C)CC[C@H](OC(=O)CC(C)(C)C(=O)O)C(C)(C)[C@@H]5CC[C@@]4(C)[C@]3(C)CC[C@@]2([C@@H](O)CN(CCN(C)C)Cc2ccc(Cl)cc2)CC1=O
-1.86% (inactive)
13. CCCC(=O)Nc1ccc(OCC(O)CNC(C)C)c(C(C)=O)c1 (configuration not stated) [acebutolol]
3.92% (inactive)
14. CCCCCCOc1cc2c(cc1N(C)c1ncc(C(=O)O)cn1)C(C)(C)CCC2(C)C
5.06% (inactive)
15. O=c1sn(-c2cccc3ccccc23)c(=O)n1Cc1ccccc1 [tideglusib]
-0.03% (inactive)
16. NC1(c2ccc(-c3nc4ccn5c(=O)[nH]nc5c4cc3-c3ccccc3)cc2)CCC1
24.5% (active)
17. O=C1c2c(O)cccc2C([C@@H]2O[C@H](CO)[C@@H](O)[C@H](O)[C@H]2O)c2cc(CO)cc(O)c21 (some centres not stated) [aloin]
1.29% (inactive)
